potency estimated from few doses listing for selected molecules.
# Test system: PRKD2
# Design: species or system human, MV4-11 + K-562 + COLO205 + SK-N-BE2 + OVCAR-8
# protocolConditions: read-out: apparent Kd; compound concentrations:100 nM and 1000 nM (sheet 'Samples'); n = 1

molecule	quantityUnit	potency estimated from few doses
Cc1cccc(-c2nc(Nc3cccc(C(N)=O)c3)c3ccccc3n2)n1 [GW876019X]	nM	739
CC(C)Oc1ccc2c(-c3ccnc(Nc4ccc(N5CCN(C)CC5)cc4)n3)cnn2n1 [GW696155X]	nM	482
Cc1cccc(-c2nc(Nc3ccc4ncsc4c3)c3ccccc3n2)n1 [GW867588X]	nM	37.5
CN(C)CCOc1ccc(-c2cc(-c3c[nH]nc3-c3ccccn3)ccn2)cc1 [GW835314X]	nM	55.4
Cc1csc(-c2nc(Nc3ccncc3)c3ccccc3n2)n1 [GW869640X]	nM	191
O=C(O)C(F)(F)F.O=c1[nH]ccc2nc(N[C@@H]3CCNC3)nc(Nc3cc(Cl)cc(Cl)c3)c12 [GSK2188764A]	nM	1300
CC(C)c1nc(-c2ccc(F)c(NS(=O)(=O)c3c(F)cccc3F)c2)c(-c2ccnc(Nc3ccc(N4CCOCC4)nc3)n2)s1 [GSK1804250A]	nM	232
Cc1cccc(-c2nc(Nc3ccncc3)c3ccccc3n2)n1 [GW855857X]	nM	3.39
